- system-tested: DPP IV (Homo sapiens)
- Construct: using human plasma as a source of DPP IV; from tissue; host or cells: human plasma
- assay-info: DPP IV assay with human plasma as source of DPP IV
- Format: biochemical
- details: 10 μM, 1 hr incubation, substrate H-gly-pro AMC, vs vehicle control
observable: inhibition at 10 µM (%)

compound: O=C1COCC(Cc2ccc(Oc3ccc(/C=C4\SC(=S)NC4=O)cc3C(F)(F)F)cc2)N1 (stereo not shown)
inhibition at 10 µM (%): 11.8

compound: O=C1COCC(Cc2ccc(Oc3ccc(/C=C4/C(=O)Nc5ccccc54)cc3F)cc2)N1 (stereo not shown)
inhibition at 10 µM (%): 9.1

[A] O=C1COCC(Cc2ccc(Oc3ccc(/C=C4/C(=O)Nc5ccccc54)cc3Cl)cc2)N1 (stereo not shown)
[B] CN1C(=O)COCC1Cc1ccc(Oc2ccc(/C=C3\SC(=O)NC3=O)cc2)cc1 (stereo not shown)
Q) Could you check which of A and B has a smaller value for inhibition at 10 µM? Bench note: the answer is the label of the chosen record.
A) A
(A: 7.5%, B: 15.2%)

###

- system-tested: DPP IV (Homo sapiens, UniProt P27487)
- Construct: using human plasma as a source of DPP IV; from tissue; host or cells: human plasma
- Sequence (P27487 39-766 limits assumed): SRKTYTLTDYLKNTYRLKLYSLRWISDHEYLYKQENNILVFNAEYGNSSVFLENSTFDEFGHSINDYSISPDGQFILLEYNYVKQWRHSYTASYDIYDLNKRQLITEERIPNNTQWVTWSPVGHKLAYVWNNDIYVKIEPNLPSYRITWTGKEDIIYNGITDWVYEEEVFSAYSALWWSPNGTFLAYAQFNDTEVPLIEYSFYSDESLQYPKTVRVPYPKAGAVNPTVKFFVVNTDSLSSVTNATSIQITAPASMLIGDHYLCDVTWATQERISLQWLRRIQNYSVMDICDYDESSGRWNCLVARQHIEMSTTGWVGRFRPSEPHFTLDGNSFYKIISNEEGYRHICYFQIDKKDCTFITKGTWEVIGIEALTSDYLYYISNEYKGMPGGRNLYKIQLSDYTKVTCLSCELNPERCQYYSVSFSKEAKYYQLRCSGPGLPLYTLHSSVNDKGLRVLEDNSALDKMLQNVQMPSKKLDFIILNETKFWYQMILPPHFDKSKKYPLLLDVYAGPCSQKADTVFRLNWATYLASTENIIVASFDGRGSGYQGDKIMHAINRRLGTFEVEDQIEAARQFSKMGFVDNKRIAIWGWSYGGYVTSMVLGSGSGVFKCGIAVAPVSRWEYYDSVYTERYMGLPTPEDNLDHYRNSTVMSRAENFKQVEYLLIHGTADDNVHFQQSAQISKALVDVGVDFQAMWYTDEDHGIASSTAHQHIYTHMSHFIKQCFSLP
- assay-info: DPP IV assay with human plasma as source of DPP IV
- Assay type: biochemical
- details: 1 μM, 1 hr incubation, substrate H-gly-pro AMC, vs vehicle control
observable: inhibition at 1 µM (%)

molecule: O=C1COCC(Cc2ccc(Oc3ccc(/C=C4\SC(=S)NC4=O)cc3C(F)(F)F)cc2)N1 (stereo not shown) [Example 18]
reported-result: 7.3

molecule: CN1C(=O)COCC1Cc1ccc(Oc2ccc(/C=C3\SC(=O)NC3=O)cc2)cc1 (stereo not shown) [Example 19]
reported-result: 8.9

[1] O=C1COCC(Cc2ccc(Oc3ccc(/C=C4/C(=O)Nc5ccccc54)cc3Cl)cc2)N1 (stereo not shown) [Example 9]
[2] O=C1COCC(Cc2ccc(Oc3ccc(/C=C4/C(=O)Nc5ccccc54)cc3F)cc2)N1 (stereo not shown) [Example 15]
Q) Decide: 1 or 2 , by lowest recorded inhibition at 1 µM. Identify your selection by its label.
A) 1

Just for reference, patent US20080267888A1 is where these values come from.
